Below, each entry is listed with its recorded melting point.

Below: 3 compounds and their reported melting point.
O=C(O)c1cc(C(=O)O)c2c(c1)C(C(=O)O)CCN2 (centres undefined) :: 240 to 241 °C
CCCN(Cc1ccc(-c2ccccc2-c2nnnn2C(c2ccccc2)(c2ccccc2)c2ccccc2)cc1)c1nc(C)cnc1C(=O)OCC :: 110 to 112 °C
CCCCCCC(=Cc1ccccc1)C(O)Cc1nc(C)c(C)nc1C (centres undefined) :: 61 to 62 °C

Now examine the next entry.
Please give the measured melting point for this compound: COC(=O)c1cccc(OCc2cc(Br)cs2)c1C(=O)OC
65 °C

###

Entries and their melting point values follow.

CCN(c1cc(S(C)(=O)=O)ccc1C(=O)O)S(C)(=O)=O :: 199 to 200 °C
CC(C)(C)c1ccc(C(=O)Nc2ccccc2C(=O)NCCc2ncc[nH]2)cc1 :: 127 to 132 °C
c1cc(OCC2CCCCC2)ccc1Cc1nnn[nH]1 :: 156 to 158 °C

Could you share which melting point value was measured for CCCCCc1ccc(C(=O)NC2N=C(c3ccccc3)c3ccccc3NC2=O)cc1 (racemic) ?
203 to 205 °C

Quick one: CN(CCO)c1nccc(Oc2ccc(NC(=O)c3cc(F)cc(N4CCOCC4)c3)c3ccccc23)n1
100 to 102 °C

Also, N#Cc1cccc(C=Cc2cccc(F)c2)n1 please.
111 to 112 °C

Request: CS(=O)(=O)N1CCN(c2cc(Cl)ncn2)CC1
200 to 202 °C

# repeat for CC(=O)OC1COC(NNC(=O)C(F)(F)F)C(OC(C)=O)C1OC(C)=O (stereo unspecified)
106 °C

Now give it for Cc1oc(-c2ccco2)nc1COc1ccc(COc2nn(-c3ccccc3)cc2C#N)cc1 too.
158 to 159 °C

What do we get for O=C(c1ccc(CN2CC=CCC2)cc1)N1CCN2C(=O)OC(c3ccccc3)(c3ccccc3)C2C1 (stereo unspecified) ?
189 to 191 °C

Moving on to COc1cc2c(cc1OC)/C(=N/OCc1ccc3nonc3c1)CC2
163 to 166 °C

Would you mind doing CC(=O)Nc1ccc(-c2ccc(NC(C)=O)cc2I)c(I)c1 as well?
300 to 301 °C

Likewise for COC(=O)N1CCC(=O)C(C2(NO)OCCO2)C1 (stereo unspecified) ?
162 to 165 °C

Queued: CN1C(=O)OC[C@H]1Cc1ccccc1
75 to 77 °C

And the next one, CCCCCCNC(=O)OC1CCN(C(=O)Oc2ccc(Oc3ccc(OC)cc3)cc2)CC1 ?
91 to 93 °C

Please do the same for Cc1cc(C)n2nc(S(=O)(=O)Nc3c(Cl)cccc3Cl)c(C#N)c2n1 as well.
280 to 285 °C

###

Form field: melting point (one value per entry).

Solved entries:
CC(C)(C)[C@H]1CC[C@H](CCC(=O)O)CC1 :: 105 to 107 °C
COc1cc(N)c2c(c1)OC(C)C2 (stereo not drawn) :: 59 to 61 °C
COC(=O)c1cc(OCC=C(Cl)Cl)cc(Cl)c1OCC=C(Cl)Cl :: 63 °C
Cn1c(Cl)cnc1CN1C(=O)C2(COc3cc4c(cc32)OCCO4)c2ccccc21 (stereo not drawn) :: 91 to 95 °C
Clc1ccccc1-c1cnc(-c2ccccc2Cl)nc1 :: 112 °C
Cc1c(C)c2c(c(C)c1N)CC(C)(CN1CCN(C(=O)C(c3ccccc3)c3ccccc3)CC1)O2 (stereo not drawn) :: 113 to 115 °C

Query (compound): CCCOc1ccc(S(=O)(=O)N2CCN(C)CC2)cc1-c1nc2cc3ncn(Cc4cccc(Cl)c4)c3cc2c(=O)[nH]1 ; field requested: melting point
198 to 200 °C

Same thing, different compound: COc1cc2c(cc1OS(N)(=O)=O)CC(C)(C)N(C(=O)c1cc(OC)c(OC)c(OC)c1)C2C (stereo not drawn)
170 to 173 °C

How about this compound: CC(C)CC(OC(=O)c1ccncc1)C(=O)OCc1ccccc1 (racemic)
49 to 50 °C

Consider next the compound CCOC(=O)c1cn([C@@H]2C[C@@H]2F)c2c(C)c(F)ccc2c1=O in the same way.
187 to 188 °C

Subsequent entry: O=C1C(=Cc2ccsc2)CCc2cc(OCCc3c[nH]cn3)ccc21
94 to 96 °C

How about this compound: COc1ccc(-n2c(CC(=O)O)c(C(=O)O)c3cc(Oc4cc(C(F)(F)F)cc(C(F)(F)F)c4)ccc32)cc1
232 °C

Next compound up: CN(C)c1cnc(N)cn1
71.5 to 74.2 °C

###

readout_kind: melting point

N#Cc1ccc(-c2nc(CCl)co2)s1 :: 146 to 147 °C
O=C1CC(NCCCOc2cccc(CN3CCCCC3)c2)=Nc2ccccc21 :: 171 to 172 °C
COc1ccc2c(c1)c(Cc1cc(=O)n(-c3cccc(F)c3)[nH]1)c(C)n2C(=O)c1ccc(Cl)cc1 :: 162 to 164 °C
Nc1ncc(Br)cc1O :: 195 to 197 °C

Alright, here's another compound for you.
Returns the measured melting point for the input compound. Input: CC(C)(C)OC(=O)N1CCCC(C(=O)N2CCC(c3[nH]nc4c3C(=O)c3c(NC(=O)NN5CCOCC5)cccc3-4)CC2)C1 (stereo not given)
196 to 198 °C

###

Reported values of melting point for individual entries

CC(=O)CCCSc1cc(C(C)(C)C)c(O)c(C(C)(C)C)c1 :: 65 to 67 °C
CCCCOc1ccc(C(=O)Nc2ccc3cc(CN4CCN(C)CC4)cnc3c2C)cc1 :: 145 °C
CCCCNC(=O)Cc1ccc2c(c1)c(Cc1ccc(C(=O)O)cc1OC)cn2C :: 92 to 95 °C
COc1cc(C(C)C)ccc1C1(O)C(=O)c2ccc(N)c(NC(C)=O)c2C1=O (stereo not given) :: 124 to 131 °C
CC(C)CC(=O)Nc1cccc(-c2ccnc3c(C(=O)C4CCCC4)cnn23)c1 :: 69 to 71 °C
O=C1CCC(=O)N1Cc1nc2sc3c(c2c(-c2ccc(OCc4ccccc4)cc2)c1Cl)CCNC3 :: 247 to 248 °C

Sample Cn1c(CO)cnc1[N+](=O)[O-] — what was its melting point?
142 to 144 °C

Try this molecule too: CCN(CC)C(=O)O[C@@H]1[C@@H](c2ccccc2)Nc2c(ccn3c(C)c(C)nc23)[C@H]1OC
97 to 98 °C

Try the molecule CCCCCCCCCCCCCCOc1ccccc1C(=O)N(CC)CC
31 to 32 °C

Item: CCOC(=O)c1[nH]c(COC)nc1C(C)(C)O
112 to 113 °C

Now the molecule Cc1cccnc1S(=O)(=O)NC(C)(C)C
107 to 110 °C

Then this molecule: Cc1cc(Oc2c(Cl)cc(C(F)(F)F)cc2Cl)nn1C(=O)NCCBr
106 to 107 °C

Same read-out for CC(C)S(=O)(=O)Nc1ccc2c(=O)c3c(sc2c1)CC(C)(C)CC3 ?
263 °C

And what about the molecule CC1CCCN1CCN1C=c2ccc(=c3ccc4c(c3)CCN(C)C=4)cc2CC1 (stereo not given) ?
> 270 °C

Query O=C1Nc2ccc(I)cc2C1=NNC(=O)c1ccc(Oc2ccc(CN3CCOCC3)cc2)cc1 next
252 °C

###

The entries below are paired with their reported melting point.

# example entries with known answers
CCCCCCCCCCn1c(=S)nc2cc(Cl)ccn2c1=S :: 153 to 155 °C
CCOC(=O)c1ccc(/C=C(\C)c2ccc(O)c(C3(C)CCCCC3)c2)cc1 :: 124 °C
CC(CC=CC=CCC(=O)O)C1CCC2C3CCC4CC(O)CCC4(C)C3CC(O)C12C (stereo not drawn) :: 208 to 211 °C
ClC(=NNc1ccccc1)c1ccc(Br)cc1 :: 152 to 153 °C
CSc1cc2c(cc1C(F)(F)F)N(C(=O)Nc1ccc(C(=O)NCCN(C)C)cc1)CC2 :: 154 to 155 °C

// lookup melting point for O=C(Nc1cccnc1)NC(CS)Cc1ccccc1 (single isomer, unassigned; (+))
149 °C

Another: Cc1cc(-c2nc3ccccc3c(=O)n2-c2ccc(Br)cc2)cc(C)c1OCCO
164 to 165 °C

Now try CC12C=CCC1C1CC(O)c3cc(O)ccc3C1CC2 (stereo not drawn) .
150 to 157 °C

Next compound: Cn1c2ccccc2c2c(=O)[nH]ccc21
242 °C

Do the same for COc1ccc2c(c1)CC[C@@H]1[C@@H]2CC[C@@]2(C)[C@H]1CCC2(OC)OC please
104 to 116 °C

Item: COC(=O)[C@@H](Cc1ccc(-c2ncnc3c2ncn3[C@@H]2CCCCO2)cc1)NC(=O)OC(C)(C)C
144 to 147 °C

Similarly, CNc1nc(C)c(-c2ccnc(Nc3ccc(N4CCN(C(C)=O)CC4)cc3)n2)s1 ?
213 to 214 °C

Also COc1ccc(C)c(Nc2c(C#N)cnc3cc(Cl)c([N+](=O)[O-])cc23)c1 , if possible.
180 to 182 °C

What do we get for COc1ccc(-n2nc(NC(=O)N(C)C)cc2-c2ccc(OCCNC(N)=O)cc2)cc1 ?
193 to 196 °C

# repeat for Fc1ccc(C(Cl)(Cn2cncn2)C2(n3cncn3)CC2)cc1 (stereo not drawn)
81 to 84 °C

How about CC(C)CC1CCCCCc2c1oc(=O)c(C(c1ccccc1)C1CC1)c2O (stereo not drawn) ?
86 to 92 °C

Follow-up entry: Fc1ccc2c(C3CCN(CCC4COc5ccccc5O4)CC3)noc2c1 (stereo not drawn)
112 to 113 °C

Again, but for COc1ccc(Br)c(Cl)c1C(=O)O
186 to 188 °C

Item: Cc1sc2c(c1C)C(c1ccc(Cl)cc1)=NC(N)c1nnc(C)n1-2 (stereo not drawn)
192 to 197 °C

Entry to check: N#Cc1ccc(C(=CC(=O)N2CCCCC2)n2ccnc2)cc1
160 to 165 °C

Item: CC(=O)N(C)c1c(N(C)C)cc(C(=O)CS(C)(=O)=O)cc1N(C)C
120 °C

Proceed to CCOC(=O)c1ccc(Oc2ccc(C(C)=C3SCCCS3)cc2)cc1
57 to 58 °C

Consider next the compound Cc1ccc(-c2ncc(N(C)CCCCOCC(=O)O)nc2-c2ccc(C)cc2)cc1 in the same way.
161 to 162 °C

Same question, NC(=O)c1ccccc1-c1cc([N+](=O)[O-])ccc1-c1ccc([N+](=O)[O-])cc1 this time
242 to 244 °C

Now try Cc1oc(-c2ccccc2)nc1COc1ccc(CCC(C(=O)O)c2c[nH]nc2-c2ccccc2)cc1 (stereo not drawn) .
104 to 105 °C

Item: Cc1cc(C)cc(S(=O)c2c(C(C)C)nc(C)n2C)c1 (stereo not drawn)
100 to 101 °C

Subsequent entry: O=c1c(-c2ccccc2)c(Cn2cnc3ccccc32)oc2ccc(Br)cc12
192 to 197 °C

Same question for COC(=O)C(Br)(C1=NCCCS1)[N+](=O)[O-] (stereo not drawn) please.
88.5 to 93 °C

Likewise for C=CC(=O)NC(C)(C)COc1ccc(Cl)cc1 ?
95 to 96 °C

Okay, and COc1cc2c(cc1OC)C(c1cc(N)ccc1Cl)=NN=C(C)C2 ?
188 to 190 °C

Now consider Clc1cc(C#Cc2nccs2)c2oc(Cc3ccccc3Cl)nc2c1 and answer again.
149 to 151 °C

Param item: CC(=O)c1ncn2c1CN=C(c1ccccc1Cl)c1cc(Cl)ccc1-2
214 to 216 °C

What about this compound? Cc1cc(N2CC=C(C(N)=O)CC2)c2cccc(Br)c2n1
225 to 227 °C
